- Test system: HOP-62 NSCLC
- assay.protocol: NCI tumour cell line growth inhibition, 48 h
observed.property: TGI (µM)
Quick note: give the figure in µM, leave out the unit.

Reading of TGI for CC(CC(C#N)(c1ccccc1)c1ccccc1)N1CCCCC1 (stereo unspecified) with HOP-62 NSCLC: 88.4

Reading of TGI for COc1ccc2nc3cc([N+](=O)[O-])ccc3c(NCCCCCN(C)C)c2c1 with HOP-62 NSCLC: 0.301

Reading of TGI for CCOC1CC(=O)c2c(Br)sc(Br)c21 (stereo unspecified) with HOP-62 NSCLC: 38.2

Reading of TGI for Cc1cc(-c2nc3c(O)cccc3s2)ccc1N with HOP-62 NSCLC: 88.8

Reading of TGI for O=C(c1ccc(F)cc1)c1cccc(C(=O)c2ccc(F)cc2)n1 with HOP-62 NSCLC: 48.6

Reading of TGI for COC(=O)/C=C/C=C(c1ccccc1)c1ccccc1 with HOP-62 NSCLC: 40.9

Now for another entry.
Reading of TGI for CCCCOc1ccc(NC(N)=Nc2ccc(Cl)cc2)cc1 with HOP-62 NSCLC: 2.86

* * *

- Tested on: HL-60(TB) leukemia
- assay.protocol: NCI tumour cell line growth inhibition, 48 h
log10 TGI by entry:
A difference of one corresponds to tenfold TGI; all values are log10 with TGI in µM.

In the examples that follow, each entry is paired with its recorded log10 TGI.
get_value(item= CC(CC(C#N)(c1ccccc1)c1ccccc1)N1CCCCC1 (stereo unspecified) , readout=log10 TGI) returns 1.63

get_value(item= Cc1ccccc1OC(C)C(=O)NN1C(=O)CC(=O)N(c2ccc(Cl)cc2)C1=S (stereo unspecified) , readout=log10 TGI) returns 1.60

get_value(item= CC(C)(C)C1=Cc2cc3cc(C(C)(C)C)[nH]c(=O)c3cc2S(=O)(=O)N1 , readout=log10 TGI) returns 1.63

get_value(item= COc1ccc(Nc2nc3ccc(C(F)(F)F)cc3nc2C(=O)O)cc1OC , readout=log10 TGI) returns 1.81

New cases:
get_value(item= Cc1c(C(=O)/C=C/c2csc3ccccc23)[n+](=O)c2ccccc2n1[O-] , readout=log10 TGI) returns 0.72

* * *

- Test system: SK-MEL-28 melanoma
- assay.protocol: NCI tumour cell line growth inhibition, 48 h
observed.property: TGI

In the examples that follow, each entry is paired with its recorded TGI.
get_value(item= COC(=O)[C@H](Cc1cn(C)cn1)NC(=O)[C@H](Cc1c[nH]c2ccccc12)NC(=O)Nc1cc(C(F)(F)F)cc(C(F)(F)F)c1 , readout=TGI) returns > 10 µM

get_value(item= COC(=O)/C=C/C=C(c1ccccc1)c1ccccc1 , readout=TGI) returns > 100 µM

get_value(item= CC(C)NC[C@@H](C(=O)N1CCN(c2ncnc3c2[C@H](C)C[C@H]3O)CC1)c1ccc(Cl)cc1 , readout=TGI) returns > 100 µM

get_value(item= NC(=S)N/N=C(/CC(=O)c1ccccc1)C(=O)Nc1ccc(Cl)c(Cl)c1 , readout=TGI) returns > 100 µM

Now for another entry.
get_value(item= COc1ccc(N[C@H](CSc2ccc(C)cc2)c2ccc(F)cc2)cc1 , readout=TGI) returns > 100 µM

* * *

TGI by entry:
- System: HS 578T breast
- assay.protocol: NCI tumour cell line growth inhibition, 48 h
Quick note: give the figure in µM, leave out the unit.

In the examples that follow, each entry is paired with its recorded TGI.
get_value(item= CCCN=Cc1cc(Cc2ccc(O)c(C=NCCC)c2)ccc1O , readout=TGI) returns 92.2

get_value(item= CCCC[C@H](NC(=O)[C@H]1CCCN1C)C(=O)N(C)[C@H](C[C@@H](OC(C)=O)c1nc(C(=O)N[C@@H](Cc2ccccc2)C[C@H](C)C(=O)OCC)cs1)C(C)C , readout=TGI) returns 6.92

get_value(item= COc1cccc(/C=C/C(=O)c2cccc(Nc3nc(Nc4ccccc4)nc(Nc4ccccc4)n3)c2)c1 , readout=TGI) returns 61.7

New cases:
get_value(item= CCCCN1CCN(c2ccc3nc(-c4ccc5nc(-c6ccc(C(F)(F)F)cc6)[nH]c5c4)[nH]c3c2)CC1 , readout=TGI) returns 3.73

get_value(item= Cc1cc(-c2nc3c(O)cccc3s2)ccc1N , readout=TGI) returns 40.8
